Target: MAO-A (Homo sapiens)
Construct: purchased Merck
Sequence (P21397 1-527): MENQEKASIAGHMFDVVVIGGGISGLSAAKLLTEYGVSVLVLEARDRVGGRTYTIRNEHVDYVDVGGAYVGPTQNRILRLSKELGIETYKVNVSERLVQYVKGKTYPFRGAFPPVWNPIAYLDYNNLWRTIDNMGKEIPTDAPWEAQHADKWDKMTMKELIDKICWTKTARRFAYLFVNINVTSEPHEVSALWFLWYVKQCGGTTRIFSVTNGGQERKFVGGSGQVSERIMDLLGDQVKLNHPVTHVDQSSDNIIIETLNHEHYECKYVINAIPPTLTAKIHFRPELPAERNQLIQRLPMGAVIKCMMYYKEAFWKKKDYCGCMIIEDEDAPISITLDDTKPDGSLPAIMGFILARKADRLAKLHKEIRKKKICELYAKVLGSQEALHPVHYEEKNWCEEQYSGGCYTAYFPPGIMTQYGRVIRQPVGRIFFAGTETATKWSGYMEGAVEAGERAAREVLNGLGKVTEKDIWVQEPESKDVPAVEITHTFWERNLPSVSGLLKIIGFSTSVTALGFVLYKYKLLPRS
Test: MAO-A inhibition, recombinant human enzyme, kynuramine substrate, fluorometric end-point
Type: biochemical
Details: mean ± SD of triplicate, racemic mixtures, NI = no inhibition at 100 µM
measuredQuantity: IC50 (µM)

Would you please look over these solved cases?
- compound: "COc1ccc(C2=NOCC(=O)N2)cc1 [Compound 3e]"
  displayUnit: "µM"
  IC50: 27.1
- compound: "COC(=O)CC1ON=C(c2ccc(C)s2)NC1=O (centres unmarked) [Compound 6d]"
  displayUnit: "µM"
  IC50: 40.7
- compound: "Cc1ccc(C2=NOC(C)C(=O)N2)s1 (centres unmarked) [Compound 4d]"
  displayUnit: "µM"
  IC50: 46.2
- compound: "COc1ccc(C2=NOC(C)C(=O)N2)cc1 (centres unmarked) [Compound 4e]"
  displayUnit: "µM"
  IC50: 51.2
- compound: "COC(=O)CC1ON=C(c2ccccn2)NC1=O (centres unmarked) [Compound 6b]"
  displayUnit: "µM"
  IC50: 34.2

I = CCC1ON=C(c2ccc(Br)cc2)NC1=O (centres unmarked) [Compound 5b]
II = COc1ccc(Oc2ccc(C3=NOCC(=O)N3)cc2)cc1 [Compound 3f]
III = O=C1CON=C(c2ccc(Br)cc2)N1 [Compound 3b]
IV = CCC1ON=C(c2ccc([N+](=O)[O-])cc2)NC1=O (centres unmarked) [Compound 5c]
Highest IC50 first, then in falling order down to the smallest. List the labels according to the requested ordering.
IV, I, III, II
(IV: 57.9 µM, I: 35.4 µM, III: 14.2 µM, II: 3.75 µM)

I = Cc1ccc(C2=NOCC(=O)N2)s1 [Compound 3d]
II = CCC1ON=C(c2ccc(C)s2)NC1=O (centres unmarked) [Compound 5d]
III = O=C1CON=C(c2ccc([N+](=O)[O-])cc2)N1 [Compound 3c]
Kindly order the items shown according to IC50, from the highest value down. // ordering of labels required in reply
II, I, III
